Target: Cynomolgus Factor P (cynomolgus)
Assay: cell-based or functional assay

| binder | Hemolytic assay IC50 (nM), 10% serum |
| --- | --- |
| NVS965-S (Fab, V domains shown, NVS965 with heavy chain N30 replaced with serine) VH: EVQLVQSGAEVKKPGSSVKVSCKASGGTFSSYAISWVRQAPGQGLEWMGRIIPIFGTANYAQKFQGRVTITADESTSTAYMELSSLRSEDTAVYYCARHGGYSFDSWGQGTLVTVSS VL: SYVLTQPPSVSVAPGKTARISCSGDNLGSKYVDWYQQKPGQAPVLVIYSDNNRPSGIPERFSGSNSGNTATLTISGTQAMDEADYYCATYDSSPRTEVFGGGTKLTVLG | 12 |
